Data credit: patent US7671048B2

Target: GABA A receptor α1β3γ2 (Homo sapiens, UniProt P14867+P18507)
Construct: expressed in transfected cells; host or cells: HEK293 (transiently transfected), membranes
Assay: [3H]flumazenil competition binding, human α1β3γ2
Ki reference
quantity_measured: Ki (nM)

INSERT INTO measurements (smiles_data, measured_target, quantity_measured, unit_abbrev, data_value) VALUES
  ('CCOC(=O)c1ncn2c1Cn1ncnc1-c1cc(OC)ccc1-2', 'GABA A receptor α1β3γ2 (Homo sapiens, UniProt P14867+P18507)', 'Ki', 'nM', 0.9),
  ('CCNC(=O)Nc1ccc2c(c1)-c1ncnn1Cc1c(C(=O)OCC)ncn1-2', 'GABA A receptor α1β3γ2 (Homo sapiens, UniProt P14867+P18507)', 'Ki', 'nM', 20.3),
  ('CCOC(=O)Nc1ccc2c(c1)-c1ncnn1Cc1c(C(=O)OCC)ncn1-2', 'GABA A receptor α1β3γ2 (Homo sapiens, UniProt P14867+P18507)', 'Ki', 'nM', 5.3),
  ('O=C1CCCN1C(=O)c1ncn2c1Cn1ncnc1-c1cc(F)ccc1-2', 'GABA A receptor α1β3γ2 (Homo sapiens, UniProt P14867+P18507)', 'Ki', 'nM', 12.3),
  ('CCOC(=O)c1ncn2c1Cn1ncnc1-c1cc(NC(=O)C(F)(F)F)ccc1-2', 'GABA A receptor α1β3γ2 (Homo sapiens, UniProt P14867+P18507)', 'Ki', 'nM', 3.1),
  ('O=C(c1ncn2c1Cn1ncnc1-c1cc(Cl)ccc1-2)C1CC1', 'GABA A receptor α1β3γ2 (Homo sapiens, UniProt P14867+P18507)', 'Ki', 'nM', 14.5),
  ('CCOC(=O)c1ncn2c1Cn1ncnc1-c1cc(OC(F)(F)F)ccc1-2', 'GABA A receptor α1β3γ2 (Homo sapiens, UniProt P14867+P18507)', 'Ki', 'nM', 3.4),
  ('CCC(=O)c1ncn2c1Cn1ncnc1-c1cc(Cl)ccc1-2', 'GABA A receptor α1β3γ2 (Homo sapiens, UniProt P14867+P18507)', 'Ki', 'nM', 32.2),
  ('O=C(c1ncn2c1Cn1ncnc1-c1cc(F)ccc1-2)C1CC1', 'GABA A receptor α1β3γ2 (Homo sapiens, UniProt P14867+P18507)', 'Ki', 'nM', 2.8);

###

Target: GABA A receptor α1β3γ2 (Homo sapiens, UniProt P14867+P18507)
Construct: expressed in transfected cells; host or cells: HEK293 (transiently transfected), membranes
Test: [3H]flumazenil competition binding, human α1β3γ2
Conditions: HEK293 cell membranes, human (transiently transfected) receptor, 1 nM [3H]flumazenil, mean of two determinations; read-out: Ki[nM] hα1
quantity_measured: Ki (nM)

INSERT INTO assay_data (compound, quantity_measured, data_value) VALUES
  ('O=C(CCc1ccccc1)c1ncn2c1Cn1ncnc1-c1cc(Br)ccc1-2 [Example 33]', 'Ki', 109),
  ('CC(C)CC(=O)c1ncn2c1Cn1ncnc1-c1cc(Br)ccc1-2 [Example 31]', 'Ki', 243),
  ('CCOC(=O)c1ncn2c1Cn1ncnc1-c1cc(Br)ccc1-2 [Example 23]', 'Ki', 1.9),
  ('O=Cc1ncn2c1Cn1ncnc1-c1cc(Cl)ccc1-2 [Example 21]', 'Ki', 223),
  ('CC(=O)c1ncn2c1Cn1ncnc1-c1cc(F)ccc1-2 [Example 1]', 'Ki', 314),
  ('C#CCNC(=O)c1ncn2c1Cn1ncnc1-c1cc(F)ccc1-2 [Example 10]', 'Ki', 242);

###

Target: GABA A receptor α3β3γ2 (Homo sapiens, UniProt P18507+P34903)
Construct: expressed in transfected cells; host or cells: HEK293 (transiently transfected), membranes
Assay: [3H]flumazenil competition binding, human α3β3γ2
Details: HEK293 cell membranes, human (transiently transfected) receptor, 1 nM [3H]flumazenil, mean of two determinations; read-out: Ki[nM] hα3
Ki reference
quantity_measured: Ki (nM)

INSERT INTO measurements (smiles_data, unit_abbrev, data_value) VALUES
  ('O=C(CCc1ccccc1)c1ncn2c1Cn1ncnc1-c1cc(Br)ccc1-2', 'nM', 133),
  ('CCOC(=O)c1ncn2c1Cn1ncnc1-c1cc(Br)ccc1-2', 'nM', 1.8),
  ('CC(C)CC(=O)c1ncn2c1Cn1ncnc1-c1cc(Br)ccc1-2', 'nM', 173),
  ('CC(=O)c1ncn2c1Cn1ncnc1-c1cc(F)ccc1-2', 'nM', 233);

###

Target: GABA A receptor α2β3γ2 (Homo sapiens, UniProt P18507+P47869)
Construct: expressed in transfected cells; host or cells: HEK293 (transiently transfected), membranes
Assay: [3H]flumazenil competition binding, human α2β3γ2
quantity_measured: Ki (µM)

INSERT INTO results (compound, measured_target, data_value) VALUES
  ('COCCOC(=O)c1ncn2c1Cn1ncnc1-c1cc(Br)ccc1-2 [Example 25]', 'GABA A receptor α2β3γ2 (Homo sapiens, UniProt P18507+P47869)', 0.0285),
  ('CCOC(=O)c1ncn2c1Cn1ncnc1-c1cc(NC=O)ccc1-2 [Example 42]', 'GABA A receptor α2β3γ2 (Homo sapiens, UniProt P18507+P47869)', 0.0086),
  ('O=C1CCCN1C(=O)c1ncn2c1Cn1ncnc1-c1cc(F)ccc1-2 [Example 9]', 'GABA A receptor α2β3γ2 (Homo sapiens, UniProt P18507+P47869)', 0.0123),
  ('C#Cc1ccc2c(c1)-c1ncnn1Cc1c(C(=O)OCC)ncn1-2 [Example 24]', 'GABA A receptor α2β3γ2 (Homo sapiens, UniProt P18507+P47869)', 0.0044),
  ('CCOC(=O)c1ncn2c1Cn1ncnc1-c1cc(OC(F)(F)F)ccc1-2 [Example 19]', 'GABA A receptor α2β3γ2 (Homo sapiens, UniProt P18507+P47869)', 0.0011),
  ('C#CCNC(=O)c1ncn2c1Cn1ncnc1-c1cc(F)ccc1-2 [Example 10]', 'GABA A receptor α2β3γ2 (Homo sapiens, UniProt P18507+P47869)', 0.0678),
  ('CCNC(=O)Nc1ccc2c(c1)-c1ncnn1Cc1c(C(=O)OCC)ncn1-2 [Example 44]', 'GABA A receptor α2β3γ2 (Homo sapiens, UniProt P18507+P47869)', 0.026),
  ('CCC(=O)c1ncn2c1Cn1ncnc1-c1cc(F)ccc1-2 [Example 2]', 'GABA A receptor α2β3γ2 (Homo sapiens, UniProt P18507+P47869)', 0.0034),
  ('O=C(c1ncn2c1Cn1ncnc1-c1cc(F)ccc1-2)C1CC1 [Example 3]', 'GABA A receptor α2β3γ2 (Homo sapiens, UniProt P18507+P47869)', 0.002),
  ('O=C(c1ncn2c1Cn1ncnc1-c1cc(Cl)ccc1-2)C1CC1 [Example 6]', 'GABA A receptor α2β3γ2 (Homo sapiens, UniProt P18507+P47869)', 0.018),
  ('O=C(CCCc1ccccc1)c1ncn2c1Cn1ncnc1-c1cc(F)ccc1-2 [Example 4]', 'GABA A receptor α2β3γ2 (Homo sapiens, UniProt P18507+P47869)', 0.06),
  ('CCOC(=O)Nc1ccc2c(c1)-c1ncnn1Cc1c(C(=O)OCC)ncn1-2 [Example 43]', 'GABA A receptor α2β3γ2 (Homo sapiens, UniProt P18507+P47869)', 0.022),
  ('CCC(=O)c1ncn2c1Cn1ncnc1-c1cc(Cl)ccc1-2 [Example 5]', 'GABA A receptor α2β3γ2 (Homo sapiens, UniProt P18507+P47869)', 0.0281),
  ('CCOC(=O)c1ncn2c1Cn1ncnc1-c1cc(C3CC3)ccc1-2 [Example 12]', 'GABA A receptor α2β3γ2 (Homo sapiens, UniProt P18507+P47869)', 0.0009),
  ('CCOC(=O)c1ncn2c1Cn1ncnc1-c1cc(NC(=O)C(F)(F)F)ccc1-2 [Example 38]', 'GABA A receptor α2β3γ2 (Homo sapiens, UniProt P18507+P47869)', 0.0073),
  ('CCOC(=O)c1ncn2c1Cn1ncnc1-c1cc(OC)ccc1-2 [Example 14]', 'GABA A receptor α2β3γ2 (Homo sapiens, UniProt P18507+P47869)', 0.0017),
  ('CCOC(=O)c1ncn2c1Cn1ncnc1-c1cc(NC(=O)CCOC)ccc1-2 [Example 41]', 'GABA A receptor α2β3γ2 (Homo sapiens, UniProt P18507+P47869)', 0.0248),
  ('CCOC(=O)c1ncn2c1Cn1ncnc1-c1cc(NC(=O)C(C)C)ccc1-2 [Example 39]', 'GABA A receptor α2β3γ2 (Homo sapiens, UniProt P18507+P47869)', 0.0735);

###

pKi reference
Biological target: GABA A receptor α3β3γ2 (Homo sapiens, UniProt P18507+P34903)
Construct: expressed in transfected cells; host or cells: HEK293 (transiently transfected), membranes
Assay: [3H]flumazenil competition binding, human α3β3γ2
pKi: −log10 of the molar value.
quantity_measured: pKi

INSERT INTO results (smiles_data, quantity_measured, data_value) VALUES
  ('CCNC(=O)Nc1ccc2c(c1)-c1ncnn1Cc1c(C(=O)OCC)ncn1-2', 'pKi', 7.91),
  ('C#Cc1ccc2c(c1)-c1ncnn1Cc1c(C(=O)OCC)ncn1-2', 'pKi', 8.19),
  ('CCOC(=O)Nc1ccc2c(c1)-c1ncnn1Cc1c(C(=O)OCC)ncn1-2', 'pKi', 7.84),
  ('CCOC(=O)c1ncn2c1Cn1ncnc1-c1cc(OC(F)(F)F)ccc1-2', 'pKi', 8.85),
  ('CCC(=O)c1ncn2c1Cn1ncnc1-c1cc(F)ccc1-2', 'pKi', 8.41),
  ('O=C1CCCN1C(=O)c1ncn2c1Cn1ncnc1-c1cc(F)ccc1-2', 'pKi', 8.05),
  ('O=Cc1ncn2c1Cn1ncnc1-c1cc(Cl)ccc1-2', 'pKi', 7.14),
  ('CCOC(=O)c1ncn2c1Cn1ncnc1-c1cc(NC(=O)C(F)(F)F)ccc1-2', 'pKi', 8.24),
  ('O=C(CCCc1ccccc1)c1ncn2c1Cn1ncnc1-c1cc(F)ccc1-2', 'pKi', 7.25),
  ('CCOC(=O)c1ncn2c1Cn1ncnc1-c1cc(NC(=O)C(C)C)ccc1-2', 'pKi', 7.40),
  ('C#CCNC(=O)c1ncn2c1Cn1ncnc1-c1cc(F)ccc1-2', 'pKi', 7.19),
  ('CCOC(=O)c1ncn2c1Cn1ncnc1-c1cc(OC)ccc1-2', 'pKi', 9.05),
  ('CCOC(=O)c1ncn2c1Cn1ncnc1-c1cc(NC(=O)CCOC)ccc1-2', 'pKi', 7.75),
  ('CCOC(=O)c1ncn2c1Cn1ncnc1-c1cc(NC=O)ccc1-2', 'pKi', 8.31),
  ('COCCOC(=O)c1ncn2c1Cn1ncnc1-c1cc(Br)ccc1-2', 'pKi', 7.73),
  ('O=C(c1ncn2c1Cn1ncnc1-c1cc(Cl)ccc1-2)C1CC1', 'pKi', 7.70),
  ('O=C(c1ncn2c1Cn1ncnc1-c1cc(F)ccc1-2)C1CC1', 'pKi', 8.74),
  ('CCOC(=O)c1ncn2c1Cn1ncnc1-c1cc(C3CC3)ccc1-2', 'pKi', 9.15),
  ('CCC(=O)c1ncn2c1Cn1ncnc1-c1cc(Cl)ccc1-2', 'pKi', 7.65),
  ('CCCC(=O)c1ncn2c1Cn1ncnc1-c1cc(Br)ccc1-2', 'pKi', 7.14);
